# assay_target: human CCR8 (human, UniProt P51685 1-355)
# protocol_summary: cell-based or functional assay
measured_attribute: hCCL1 (100 nM) residual response in %, Protocol #3, mAb 5 µg/mL (33.3 nM) (%)

{"binder": "anti-CCR8 mAb 2-10 (antibody, V domains shown) VH: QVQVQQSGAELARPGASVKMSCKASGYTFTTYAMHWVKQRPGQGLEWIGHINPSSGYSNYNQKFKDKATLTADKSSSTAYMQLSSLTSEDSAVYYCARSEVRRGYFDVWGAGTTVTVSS VL: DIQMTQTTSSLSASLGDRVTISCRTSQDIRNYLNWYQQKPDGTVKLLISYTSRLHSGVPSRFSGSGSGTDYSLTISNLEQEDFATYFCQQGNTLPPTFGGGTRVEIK", "output_unit": "%", "numeric_value": 59}
{"binder": "humanized anti-CCR8 mAb 2-15 (antibody, human IgG1, kappa, V domains shown, Humanized, human IgG1 / kappa) VH: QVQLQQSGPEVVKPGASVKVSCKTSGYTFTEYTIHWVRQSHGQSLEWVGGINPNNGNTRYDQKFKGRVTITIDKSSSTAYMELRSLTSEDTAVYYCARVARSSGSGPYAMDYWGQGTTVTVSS VL: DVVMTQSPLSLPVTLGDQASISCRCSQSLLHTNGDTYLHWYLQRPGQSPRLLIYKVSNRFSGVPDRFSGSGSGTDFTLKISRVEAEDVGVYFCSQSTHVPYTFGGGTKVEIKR", "output_unit": "%", "numeric_value": 37}
{"binder": "anti-CCR8 mAb 2-3 (antibody, V domains shown) VH: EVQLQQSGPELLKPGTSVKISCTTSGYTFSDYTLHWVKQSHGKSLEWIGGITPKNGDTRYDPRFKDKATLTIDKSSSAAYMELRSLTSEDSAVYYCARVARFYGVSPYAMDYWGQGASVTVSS VL: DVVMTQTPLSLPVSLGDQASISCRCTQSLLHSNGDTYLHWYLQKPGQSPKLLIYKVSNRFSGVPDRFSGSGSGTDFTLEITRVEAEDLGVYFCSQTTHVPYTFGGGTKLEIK", "output_unit": "%", "numeric_value": 47}

Data origin: patent US20260167731A1
